// data source = patent US20100129800A1

# method_description: Fluorescence properties of the new compounds (excitation and emission wavelengths)
# Type: physicochemical
# conditions_used: free compound
value_type: Fluorescence emission (nm)

>>> result_value("CC(OP(=O)(O)OCC(O)CNc1c2nc3ccccc3c-2n(C)c2ccccc12)C(CO)NC(=O)c1c2ccccc2nc2ccccc12 (stereo not shown) [Example 31]")
441
>>> result_value("CC(=O)NC1CC(C(=O)NC2CC(C(=O)NC3CC(C(=O)NC4CC(C(=O)NC5CC(C(=O)NC6CC(C(=O)NC7CC(C(N)=O)N(C(=O)CNC(=O)c8c9ccccc9nc9c8[nH]c8ccccc89)C7)N(C(C)=O)C6)N(C(C)=O)C5)N(C(=O)CNC(=O)c5cc(-c6ccccc6)nc6ccccc56)C4)N(C(C)=O)C3)N(C(C)=O)C2)N(C(=O)CNC(=O)c2c3ccccc3nc3ccccc23)C1 (stereo not shown) [Example 67]")
451
>>> result_value("CC(=O)N1CC(NC(=O)CNC(=O)c2c3ccccc3nc3ccccc23)C[C@H]1C(=O)N1CC(NC(=O)CNC(=O)c2c3ccccc3nc3ccccc23)C[C@H]1C(N)=O (stereo partly shown) [Example 52]")
450
>>> result_value("CC(=O)N[C@@H](CCCNC(=O)CNC(=O)c1c2ccccc2nc2c1[nH]c1ccccc12)C(=O)N[C@@H](CCCNC(=O)CNC(=O)c1c2ccccc2nc2c1[nH]c1ccccc12)C(=O)N[C@@H](CCCNC(=O)CNC(=O)c1c2ccccc2nc2c1[nH]c1ccccc12)C(N)=O [Example 71]")
466
